Protocol: qHTS of GLP-1 Receptor Inverse Agonists: Cytotox Screen;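 also: loss of luciferase light is scored as toxicity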
Setup Conditions: HEK293 cAMP-luciferase reporter cells, luminescence, 24 h; series mostly up to 38.3 µM
Screen size: about 410,000 compounds; about 530 (0.13%) were called active. Roughly 5% stayed inconclusive and do not appear here. Calls follow the shape of the dose curve; as a rule, active = well fitted inhibition curve with a large enough effect; inconclusive = small, poorly fitted or top-dose-only effect, or another doubt; inactive = no such curve, though single readings can be large or run the other way. The entries come from a sample that favours actives as a whole.
Respond only with the outcome that fits, drawn from active, inactive

1. O=C1N[C@H](Cc2c[nH]c3ccccc23)COC(=O)[C@H](Cc2ccc(F)cc2)C/C=C\C[C@H]1CC(=O)N(CCO)Cc1ccccc1    inactive
2. Cc1cc(C)c2c(c1)cc(C)c1nnc(SCC(=O)Nc3cc(C)on3)n12    active
3. NC(=O)c1sc2nc3c(c(-c4ccccc4)c2c1N)CCC3    inactive

Could you kindly confirm the outcome this assay logged for "NS(=O)(=O)c1ccc(NC(=O)COC(=O)c2c3c(nc4ccccc24)/C(=C\c2ccc4c(c2)OCO4)CCC3)cc1" ? inactive

// return assay outcome for "CCc1ccc(OCC(=O)N2CCN(CC(=O)Nc3ccccc3Cl)CC2)cc1" inactive

Test call for this molecule, please: "COc1ccccc1OC(=O)c1ccc(C)c(S(=O)(=O)N2CCOCC2)c1" inactive

Per the assay record, what outcome was assigned to "O=C(Nc1nnc(-c2ccccc2)o1)c1cccc(S(=O)(=O)N2CCOCC2)c1" ? active

For this molecule, state the assay outcome: CCN(CC)CCCC(C)n1c2nc(=O)[nH]c(=O)c-2nc2cc(Cl)ccc21 (centres undefined) inactive
